system: RSV Long strain; experiment: Viral cytopathic effect (CPE) assay, anti-RSV activity; type: cell-based, Respiratory Syncytial Virus; settings: human respiratory syncytial virus, 144 h, RSV Long strain (ATCC); cell viability after 6 days, Cell Counting kit-8
recorded.endpoint: EC50 (µM)

1 = Cc1ccc2nc(N3CCS(=O)(=O)c4ccccc4C3)cc(NC(=O)Nc3ccccc3)c2c1 [Example 50-1]
2 = COc1ccc2c(c1)S(=O)(=O)CCN(c1cc(NCC3(N)COC3)c3ccccc3n1)C2 [Example 2-9]
// query For the pair 1 and 2 , which entry has the numerically smaller recorded EC50? Which one? Tell me its label.
// result 2
(2: 0.007 µM, 1: 0.931 µM)

P = Cc1ccc2nc(N3CCS(=O)(=O)c4ccccc4C3)cc(N3C[C@@H](N)[C@H](F)C3)c2c1 (relative stereo) [Example 78-2]
Q = COc1ccc2c(c1)CN(c1cc(NCC3(CN)COC3)c3ccccc3n1)CCS2(=O)=O [Example 3-4]
R = CO/N=C1\CCN(c2cc(NCC3(N)COC3)c3cc(C)ccc3n2)Cc2ccccc21 [Example 112-2]
S = Cc1ccc2nc(N3CCC(F)(F)c4ccccc4C3)cc(NCC3(CN)COC3)c2c1 [Example 110-15]
// query Sort these molecules on EC50 so the largest reading comes first. Please respond by ranking the labels in the order requested.
// result P, R, Q, S

A = COc1ccc2c(c1)CN(c1cc(NCC3(N)COC3)c3cc(C)ccc3n1)CCS2(=O)=O [Example 1-5]
B = Cc1ccc2nc(N3CCS(=O)(=O)c4ccccc4C3)cc(NC(=O)C3CCNCC3)c2c1 [Example 3-62]
// query Which item exceeds the other in EC50, A or B ? // return label of chosen record
// result B

A = Cc1ccc2nc(N3CC[S+]([O-])c4ccccc4C3)nc(N3CCC(N)C3)c2c1 (stereo not drawn) [Example 93-1]
B = Cc1ccc2nc(N3CCS(=O)(=O)c4ccccc4C3)cc(NCCN(C)C)c2c1 [Example 3-32]
C = NCCNc1cc(N2CCCc3c(Cl)cccc3C2)nc2ccccc12 [Example 118-12]
D = Cc1ccc2c(c1)S(=O)(=O)CCN(c1cc(NCC3(CN)COC3)c3ccccc3n1)C2 [Example 3-7]
// query Rank order required: EC50, descending. Reply format: the labels, ordered as requested.
// result C, B, D, A
(C: 0.448 µM, B: 0.037 µM, D: 0.009 µM, A: 0.005 µM)

----------
tested on: RSV Long strain; test: Viral cytopathic effect (CPE) assay, anti-RSV activity; assay type: cell-based, Respiratory Syncytial Virus; conditions: human respiratory syncytial virus, 144 h, RSV Long strain (ATCC); cell viability after 6 days, Cell Counting kit-8
recorded.endpoint: EC50 (µM)

- Cc1ccc2nc(N3CCS(=O)(=O)c4ccccc4C3)cc(NCCS(=O)(=O)CCN)c2c1: 0.002
- CS(=O)(=O)c1ccc2nc(N3CCCc4ccccc4C3)cc(NCCN)c2c1: 6.45
- Cc1ccc2nc(N3CCS(=O)(=O)c4ccccc4C3)cc(NC(=O)c3ccccn3)c2c1: 0.009
- Cc1ccc2nc(N3CCS(=O)(=O)c4ccccc4C3)cc(NC3(CN)COC3)c2c1: 0.005
- Cc1ccc2nc(N3CCS(=O)(=O)c4ccccc4C3)cc(CCCN)c2c1: 2.83

A = Cc1ccc2nc(N3CCS(=O)(=O)c4ccccc4C3)cc(N3CCC(C(N)=O)C3)c2c1 (stereo not shown)
B = Cc1ccc2nc(N3CCC(F)(F)c4ccccc4C3)cc(NC3CCNC3)c2c1 (stereo not shown)
// query When the recorded EC50 values are compared, which is smaller: that of A or that of B ? Kindly give the label for the entry you pick.
// result B

P = Cc1ccc2nc(N3CCS(=O)(=O)c4ccccc4C3)cc(C)c2c1
Q = Cc1ccc2nc(N3CCS(=O)(=O)c4ccccc4C3)cc(NCCC(N)C(F)(F)F)c2c1 (stereo not shown)
// query # min-compare on EC50 between P and Q Respond with the label that goes with your answer.
// result P

a = COC(C)(C)C(=O)Nc1cc(N2CCS(=O)(=O)c3ccccc3C2)nc2ccc(C)cc12
b = Cc1ccc2nc(N3CCS(=O)(=O)c4ccccc4C3)cc(NCC3CN=C(N)O3)c2c1 (stereo not shown)
// query Quick check, higher EC50 between a and b ? Mark your answer with the label of the selected entry.
// result a
(a: 2.63 µM, b: 0.01 µM)

Source of measurements: patent US8871756B2
